# method: Evaluation of dissolution stability (content change on storage in dissolved state)
# Type: physicochemical
# measurement conditions: 1 mg/1 ml dissolved state, 40° C. and RH 75%, day 7
*1 amine or outer side, *2 acyl side, *3 side chain or, on linkers, in order; H or OH if unused. Primed or numbered codes have the meaning given here. Where no end group is shown, it is not given here. [ ]: non-standard residue; d: D form. Pro(trans-4-NH2) = O=C([C@@H]1C[C@@H](N[*:3])CN1[*:1])[*:2]; Pro(4-methylene) = C=C1CN[C@H](C(=O)O)C1; Pro(4,4-F2) = O=C(O)[C@@H]1CC(F)(F)CN1; Asu′ = aspartimide (aminosuccinimide); Hyp = O=C(O)[C@@H]1C[C@@H](O)CN1
Day 7 content (%) below 70% gives Not fulfilled; Day 7 content (%) at or above it gives Fulfilled.

substance: Hyp-Gly-Gln-Asp-Leu-Leu-Ala ([Hyp]GQDLLA) [Example 38]
qualitative label: Fulfilled
--
substance: 4,4-difluoro-Pro-Gly-Gln-Asp-Gly-Leu ([Pro(4,4-F2)]GQDGL) [Example 48]
qualitative label: Not fulfilled
--
substance: QDGLAGPK [Example 16]
qualitative label: Not fulfilled
--
substance: Hyp-Gly-Gln-Asp-Gly-Leu-D Ala ([Hyp]GQDGL[dA]) [Example 66]
qualitative label: Not fulfilled
--
substance: Hyp-Gly-Gln-Asp-Gly-Leu ([Hyp]GQDGL) [Example 11]
qualitative label: Not fulfilled
--
substance: Hyp-Gly-Gln-Ala-Val ([Hyp]GQAV) [Example 119]
qualitative label: Fulfilled
--
substance: Hyp-Gly-Gln-Ala-Gly-Leu ([Hyp]GQAGL) [Example 122]
qualitative label: Fulfilled
--
substance: Gln-Asu-Gly-Leu-Ala-Gly (Q[Asu′]GLAG) [Example 118]
qualitative label: Fulfilled
--
substance: Hyp-Gly-Gln-Glu-Gly-Leu-Ala ([Hyp]GQEGLA) [Example 69]
qualitative label: Fulfilled
--
substance: Hyp-Gly-Gln-Ala-Leu-Leu ([Hyp]GQALL) [Example 123]
qualitative label: Fulfilled
--
substance: Hyp-Gly-Gln-Asp-Gly-Val-Ala ([Hyp]GQDGVA) [Example 72]
qualitative label: Fulfilled
--
substance: Hyp-Ala-Gln-Asp-Gly ([Hyp]AQDG) [Example 73]
qualitative label: Fulfilled
--
substance: trans-4NH2-Pro-Gly-Gln-Asp-Gly ([Pro(trans-4-NH2)]GQDG) [Example 42]
qualitative label: Not fulfilled
--
substance: Hyp-Gly-Gln-Ala-Gly ([Hyp]GQAG) [Example 13]
qualitative label: Fulfilled
--
substance: 4-methylene-Pro-Gly-Gln-Asp-Gly-Leu-Ala ([Pro(4-methylene)]GQDGLA) [Example 54]
qualitative label: Not fulfilled
--
substance: Hyp-Gly-Gln-Asu-Gly-Leu ([Hyp]GQ[Asu′]GL) [Example 101]
qualitative label: Fulfilled
--
substance: Hyp-Gly-Gln-Glu-Val-Leu ([Hyp]GQEVL) [Example 89]
qualitative label: Fulfilled

----------
# method: Evaluation of dissolution stability (content change on storage in dissolved state)
# Type: physicochemical
# measurement conditions: 1 mg/1 ml dissolved state, 40° C. and RH 75%, initial
Where no end group is shown, it is not given here. [ ]: non-standard residue; d: D form. The star is where a group is joined. Hyp = O=C(O)[C@@H]1C[C@@H](O)CN1; dHyp = O=C(O)[C@H]1C[C@H](O)CN1; OiPr = CC(C)O*
assay readout: Initial content (%)

substance: Hyp-Gly-Gln-Ala-Gly-Leu-Ala ([Hyp]GQAGLA) [Example 14]
number: 97.13
//
substance: D Hyp-Gly-Gln-Asp-Gly-Leu-Ala ([dHyp]GQDGLA) [Example 50]
number: 96.67
//
substance: Hyp-Gly-Gln-Asp-Gly-Val-Ala ([Hyp]GQDGVA) [Example 72]
number: 97.08
//
substance: Hyp-Gly-Gln-Leu-Leu-Leu ([Hyp]GQLLL) [Example 98]
number: 99.03
//
substance: Hyp-Gly-Gln-Asp (isopropyl ester)-Gly-Leu-Ala ([Hyp]GQD(OiPr)GLA) [Example 117]
number: 94.77

----------
# method: Evaluation of dissolution stability (content change on storage in dissolved state)
# Format: physicochemical
# measurement conditions: 1 mg/1 ml dissolved state, 40° C. and RH 75%, day 3
Primed or numbered codes have the meaning given here. Where no end group is shown, it is not given here. [ ]: non-standard residue; d: D form. Pro(4-methylene) = C=C1CN[C@H](C(=O)O)C1; Pro(cis-4-F) = O=C(O)[C@@H]1C[C@H](F)CN1; Asu′ = aspartimide (aminosuccinimide); Hyp = O=C(O)[C@@H]1C[C@@H](O)CN1

substance: Hyp-Gly-Gln-Glu-Gly ([Hyp]GQEG) [Example 67]
Day 3 content (%): 98.75
--
substance: PGQDGLA [Example 78]
Day 3 content (%): 85.14
--
substance: Hyp-Gly-Gln-Ala-Leu-Leu ([Hyp]GQALL) [Example 123]
Day 3 content (%): 98.98
--
substance: Hyp-Gly-Gln-Asp-Gly (isopropyl ester) [Example 106]
Day 3 content (%): 75.61
--
substance: Hyp-Gly-Gln-Asp-Gly ([Hyp]GQDG) [Example 10]
Day 3 content (%): 86.65
--
substance: Hyp-Gly-Gln-Asp-Gly-Leu-D Ala ([Hyp]GQDGL[dA]) [Example 66]
Day 3 content (%): 79.64
--
substance: cis-4F Pro-Gly-Gln-Asp-Gly-Leu-Ala ([Pro(cis-4-F)]GQDGLA) [Example 51]
Day 3 content (%): 72.55
--
substance: Hyp-Gly-Gln-Ala-Gly ([Hyp]GQAG) [Example 13]
Day 3 content (%): 98.04
--
substance: Hyp-Gly-Gln-Asp-Leu-Leu ([Hyp]GQDLL) [Example 35]
Day 3 content (%): 95.78
--
substance: Hyp-Gly-Gln-Glu-Gly-Leu ([Hyp]GQEGL) [Example 68]
Day 3 content (%): 97.51
--
substance: Hyp-Gly-Gln-Asp-Val-Leu-Ala-Gly ([Hyp]GQDVLAG) [Example 24]
Day 3 content (%): 95.71
--
substance: Hyp-Gly-Gln-Asu-Gly (isopropyl ester) [Example 109]
Day 3 content (%): 69.45
--
substance: QLGLAGPK [Example 18]
Day 3 content (%): 36.72
--
substance: Hyp-Gly-Gln-Asp-Gly-Val ([Hyp]GQDGV) [Example 71]
Day 3 content (%): 88.76
--
substance: Hyp-Gly-Gln-Leu-Leu-Leu ([Hyp]GQLLL) [Example 98]
Day 3 content (%): 98.86
--
substance: 4-methylene-Pro-Gly-Gln-Asp-Gly-Leu-Ala ([Pro(4-methylene)]GQDGLA) [Example 54]
Day 3 content (%): 73.59
--
substance: Hyp-Gly-Gln-Ala-Val-Leu ([Hyp]GQAVL) [Example 124]
Day 3 content (%): 99.11
--
substance: Hyp-Ala-Gln-Asp-Gly ([Hyp]AQDG) [Example 73]
Day 3 content (%): 82.64
--
substance: Leu-Ala-Gly-Pro-Lys (LAGPK) [Example 25]
Day 3 content (%): 81.09
--
substance: Hyp-Gly-Gln-Glu-Phenyl Gly-Leu-Ala [Example 94]
Day 3 content (%): 98.43
--
substance: Gln-Asu-Gly-Leu-Ala-Gly (Q[Asu′]GLAG) [Example 118]
Day 3 content (%): 85.67

----------
Listed here: items and their measured Day 1 content (%).
# method: Evaluation of dissolution stability (content change on storage in dissolved state)
# Format: physicochemical
# measurement conditions: 1 mg/1 ml dissolved state, 40° C. and RH 75%, day 1
Primed or numbered codes have the meaning given here. Where no end group is shown, it is not given here. [ ]: non-standard residue; d: D form. Pro(4-methylene) = C=C1CN[C@H](C(=O)O)C1; Asu′ = aspartimide (aminosuccinimide); Hyp = O=C(O)[C@@H]1C[C@@H](O)CN1

substance: Pro-Gly-Gln-Asp-Gly (PGQDG) [Example 76]
Day 1 content (%): 90.01
--
substance: GLAGPK [Example 26]
Day 1 content (%): 89.41
--
substance: 4-methylene-Pro-Gly-Gln-Asp-Gly-Leu ([Pro(4-methylene)]GQDGL) [Example 49]
Day 1 content (%): 86.53
--
substance: Gln-Asu-Gly-Leu-Ala-Gly-Pro-Lys (Q[Asu′]GLAGPK) [Example 104]
Day 1 content (%): 96.52
--
substance: Hyp-Gly-Gln-Glu-Val-Leu-Ala ([Hyp]GQEVLA) [Example 87]
Day 1 content (%): 98.07
--
substance: Leu-Ala-Gly-Pro-Lys (LAGPK) [Example 25]
Day 1 content (%): 85.76
